# tested-system: somatostatin receptor type 2 (SSTR2) (UniProt P30874 1-369)
# Sequence (P30874 whole entry): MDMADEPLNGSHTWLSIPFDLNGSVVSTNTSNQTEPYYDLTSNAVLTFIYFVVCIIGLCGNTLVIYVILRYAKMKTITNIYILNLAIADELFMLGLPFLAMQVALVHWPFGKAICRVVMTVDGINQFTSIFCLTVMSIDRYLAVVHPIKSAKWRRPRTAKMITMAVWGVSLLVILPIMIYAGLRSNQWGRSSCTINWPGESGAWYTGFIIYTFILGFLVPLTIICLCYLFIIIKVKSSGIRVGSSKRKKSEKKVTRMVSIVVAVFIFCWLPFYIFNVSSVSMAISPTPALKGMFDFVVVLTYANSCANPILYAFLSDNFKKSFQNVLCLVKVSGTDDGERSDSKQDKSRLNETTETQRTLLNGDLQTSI
# assay-details: cell-based or functional assay
value-type: IC50 (PathHunter β-Arrestin, antagonist mode)

Please fill in: IC50 (PathHunter β-Arrestin, antagonist mode) reported for XXYXXTCX (HELM PEPTIDE1{[N[C@@H](Cc1ccc(Cl)cc1)C(=O)[*:2]].[dC].Y.[NC(=O)c1ccc(C[C@@H](N[*:1])C(=O)[*:2])cc1].K.T.C.[dY].[am]}|PEPTIDE2{[ac]}$PEPTIDE1,PEPTIDE2,5:R3-1:R2|PEPTIDE1,PEPTIDE1,2:R3-7:R3$$$V2.0; SMILES CC(=O)NCCCC[C@@H]1NC(=O)[C@@H](Cc2ccc(C(N)=O)cc2)NC(=O)[C@H](Cc2ccc(O)cc2)NC(=O)[C@H](NC(=O)[C@@H](N)Cc2ccc(Cl)cc2)CSSC[C@@H](C(=O)N[C@H](Cc2ccc(O)cc2)C(N)=O)NC(=O)[C@H]([C@@H](C)O)NC1=O) [Compound 26: H-Cpa-cyclo[DCys-Tyr-D-(4-carbamoyl)Phe-(N-Acetyl)Lys-Thr-Cys]-DTyr-NH2] = > 1000 nM
